In this section we review reported log10 IC50 values for a set of molecules.
Biological target: Renin (Homo sapiens, UniProt P00797)
Sequence (P00797 whole entry): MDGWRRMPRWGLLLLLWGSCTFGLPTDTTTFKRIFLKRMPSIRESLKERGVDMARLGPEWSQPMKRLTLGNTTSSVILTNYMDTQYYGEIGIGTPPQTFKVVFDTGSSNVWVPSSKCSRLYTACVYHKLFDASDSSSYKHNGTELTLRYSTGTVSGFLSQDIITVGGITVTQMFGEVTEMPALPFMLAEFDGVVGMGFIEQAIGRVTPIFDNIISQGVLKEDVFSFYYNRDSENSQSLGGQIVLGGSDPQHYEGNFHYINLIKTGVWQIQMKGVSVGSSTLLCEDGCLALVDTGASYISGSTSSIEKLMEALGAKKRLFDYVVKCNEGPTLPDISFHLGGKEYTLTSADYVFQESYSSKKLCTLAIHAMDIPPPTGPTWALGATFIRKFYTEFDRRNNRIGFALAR
Assay: Inhibition against human plasma renin
Assay type: cell-free
Hi team, quick reminder: these entries are log10 of IC50 (nM).

Completed entries (count: 3):
COc1ccc(C[C@H](NC(=O)OC(C)(C)C)C(=O)N[C@@H](Cc2c[nH]cn2)C(=O)N[C@@H](CC2CCCCC2)[C@@H](O)CCS(=O)(=O)C(C)C)cc1 ... 1.61
CC(C)S(=O)(=O)CC[C@H](O)[C@H](CC1CCCCC1)NC(=O)[C@H](Cc1c[nH]cn1)NC(=O)[C@H](Cc1ccccc1)NC(=O)CC(C)(C)C ... 1.28
CC(C)S(=O)(=O)CC[C@H](O)[C@H](CC1CCCCC1)NC(=O)[C@H](C)NC(=O)[C@H](Cc1ccccc1)NC(=O)OC(C)(C)C ... 2.93

[ask] Given "CC(C)S(=O)(=O)CC[C@H](O)[C@H](CC1CCCCC1)NC(=O)[C@H](Cc1c[nH]cn1)NC(=O)[C@H](Cc1ccccc1)NC(=O)OC(C)(C)C" , state its recorded log10 IC50.
[reply] 1.43

[ask] Look up log10 IC50 for this molecule: "CC(C)S(=O)(=O)CC[C@H](O)[C@H](CC1CCCCC1)NC(=O)[C@H](Cc1ccccc1)NC(=O)[C@H](Cc1ccccc1)NC(=O)OC(C)(C)C"
[reply] 2.53

[ask] Report log10 IC50 for "CCS(=O)(=O)CC[C@H](O)[C@H](CC1CCCCC1)NC(=O)[C@H](C)NC(=O)[C@H](Cc1ccccc1)NC(=O)OC(C)(C)C" please.
[reply] 3.00

[ask] Entry "CC(C)C[C@H](NC(=O)[C@H](Cc1ccccc1)NC(=O)OC(C)(C)C)C(=O)N[C@@H](CC1CCCCC1)[C@@H](O)CCS(=O)(=O)C(C)C" has what log10 IC50?
[reply] 1.89

----------
IC50 overview
target: Renin (Homo sapiens); test: Inhibition against purified human renal renin
All answers are understood in nM, so give the number only.

For orientation, consider the following solved cases.
CC(C)S(=O)(=O)CC[C@H](O)[C@H](CC1CCCCC1)NC(=O)[C@H](C)NC(=O)[C@H](Cc1ccccc1)NC(=O)OC(C)(C)C ... 76
CC(C)C[C@H](NC(=O)[C@H](Cc1ccccc1)NC(=O)OC(C)(C)C)C(=O)N[C@@H](CC1CCCCC1)[C@@H](O)CCS(=O)(=O)C(C)C ... 14
CC(C)S(=O)(=O)CC[C@H](O)[C@H](CC1CCCCC1)NC(=O)[C@H](Cc1c[nH]cn1)NC(=O)[C@H](Cc1ccccc1)NC(=O)CC(C)(C)C ... 6
CC(C)S(=O)(=O)CC[C@H](O)[C@H](CC1CCCCC1)NC(=O)[C@H](Cc1ccccc1)NC(=O)[C@H](Cc1ccccc1)NC(=O)OC(C)(C)C ... 20
CCS(=O)(=O)CC[C@H](O)[C@H](CC1CCCCC1)NC(=O)[C@H](C)NC(=O)[C@H](Cc1ccccc1)NC(=O)OC(C)(C)C ... 140
CCOC(=O)N[C@@H](Cc1ccccc1)C(=O)N[C@@H](Cc1cnc[nH]1)C(=O)N[C@@H](CC1CCCCC1)[C@@H](O)CCS(=O)(=O)C(C)C ... 10

[ask] What value of measured IC50 is listed for "COc1ccc(C[C@H](NC(=O)OC(C)(C)C)C(=O)N[C@@H](Cc2c[nH]cn2)C(=O)N[C@@H](CC2CCCCC2)[C@@H](O)CCS(=O)(=O)C(C)C)cc1" ?
[reply] 9.1
